Some compounds, each annotated with its measured remaining activity at 10 µM.
Molecular target: His6-PDK1 (aa 52-556) (Homo sapiens)
Construct: 15 μL His6-PDK1 (aa 52-556) 3.33 ng/well) and PDKtide; host or cells: baculovirus-infected insect cells
Sequence (O15530 52-556): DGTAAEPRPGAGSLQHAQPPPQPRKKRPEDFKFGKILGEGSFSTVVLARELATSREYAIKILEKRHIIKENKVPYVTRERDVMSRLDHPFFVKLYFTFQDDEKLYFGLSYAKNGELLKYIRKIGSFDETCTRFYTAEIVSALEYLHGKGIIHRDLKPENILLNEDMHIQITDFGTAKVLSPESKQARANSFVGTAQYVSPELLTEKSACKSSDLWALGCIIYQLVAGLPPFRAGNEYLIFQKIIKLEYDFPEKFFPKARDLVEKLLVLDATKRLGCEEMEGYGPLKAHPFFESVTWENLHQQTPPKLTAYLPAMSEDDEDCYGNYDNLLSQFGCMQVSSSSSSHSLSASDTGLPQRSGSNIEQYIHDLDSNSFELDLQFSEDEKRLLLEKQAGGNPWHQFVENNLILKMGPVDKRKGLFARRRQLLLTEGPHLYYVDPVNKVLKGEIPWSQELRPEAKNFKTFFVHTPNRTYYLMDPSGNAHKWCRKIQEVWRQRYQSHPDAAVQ
Experiment: PDK1 kinase assay III (with Tween 20)
Format: biochemical
Conditions: 10 μM compound, residual enzyme activity relative to DMSO control, unmarked values, read-out: % CTL
Answer with the figure and its unit, nothing else.

Worked cases, answers included:
O=C1Nc2cc(/C=C/CNC(=O)c3cccn(Cc4ccccn4)c3=O)ccc2/C1=C/c1ccc[nH]1	20.1%
O=C1Nc2cc(/C=C/CNC(=O)c3cccn(Cc4ccc(Cl)nc4)c3=O)ccc2/C1=C/c1cnc[nH]1	16.8%
O=C1Nc2cc(/C=C/CNC(=O)c3cccn(Cc4ccccn4)c3=O)ccc2/C1=C/c1cnc[nH]1	17.7%
O=C1Nc2cc(/C=C/CNC(=O)c3cccn(Cc4ccncc4)c3=O)ccc2/C1=C/c1cnc[nH]1	25.1%
CN1CCC(Nc2ccc(Nc3ncc4cc(/C=C/CNC(=O)c5cccn(Cc6ccc(C(F)(F)F)nc6)c5=O)ccc4n3)cc2F)CC1	17.2%

**Q:** Give the reported remaining activity at 10 µM for CN(C)Cc1ccc(Nc2ncc3cc(/C=C/CNC(=O)c4cccn(Cc5ccc(Cl)nc5)c4=O)ccc3n2)cc1 (system: His6-PDK1 (aa 52-556) (Homo sapiens)).
**A:** 13.6%
